Tested on: MOLT-4
protocol.summary: NCI tumour cell line growth inhibition, 48 h
Activity calls are given as the source filed them. Cut-off read from the data, not from the text of the source: active = GI50 up to about 1.1 µM and inactive = higher.
We begin with a simple list: items and their reported GI50.

[
  {
    "compound": "[O-][S+]1c2ccccc2NC(c2ccc3ccccc3c2)CC1c1ccccc1 (stereo unspecified)",
    "GI50": "24 µM (inactive)"
  },
  {
    "compound": "CN(C)c1ccc(/C=C2\\N=C(c3ccc(N)cc3)OC2=O)cc1",
    "GI50": "> 100 µM (inactive)"
  },
  {
    "compound": "CC(=O)NNc1nc(C)c(C(=O)/C=C/c2ccc(NC(C)=O)cc2)s1",
    "GI50": "> 100 µM (inactive)"
  },
  {
    "compound": "CC(C)(Br)C(Br)CCC(C)(Br)C(Br)CO (stereo unspecified)",
    "GI50": "> 10 µM (inactive)"
  },
  {
    "compound": "CCN(CC)CCNc1ccc2nnn3c4ccc([N+](=O)[O-])cc4c(=O)c1c23",
    "GI50": "2.13 µM (inactive)"
  },
  {
    "compound": "Cc1ccc(S(=O)(=O)n2c(-c3ccccc3)c(-c3ccccc3)c3ccccc32)cc1",
    "GI50": "> 100 µM (inactive)"
  },
  {
    "compound": "COC(=O)c1c2c(cc3c1CC1(Cc4cc5c(cc4C1)CCC5)C3)CCC2",
    "GI50": "> 100 µM (inactive)"
  },
  {
    "compound": "NC(=O)/C(=N\\NC(=O)C[n+]1ccccc1)C1NC(=O)NC1=O (stereo unspecified)",
    "GI50": "> 100 µM (inactive)"
  },
  {
    "compound": "OCC1OC(O)C(/N=C\\c2ccc3c(c2)OCO3)C(O)C1O (stereo unspecified)",
    "GI50": "> 100 µM (inactive)"
  },
  {
    "compound": "COC(=O)CC(c1ccccc1)C(C#N)(OP1(=O)OC(c2ccccc2)C(C)N1C)c1ccccc1 (stereo unspecified)",
    "GI50": "19.5 µM (inactive)"
  },
  {
    "compound": "c1cc2nnsc2s1",
    "GI50": "> 100 µM (inactive)"
  }
]
